measuredOn: Human Polymorphonuclear Leukocyte Elastase (Homo sapiens, UniProt P08246)
test: biochemical
testParameters: Table II; 50% inhibition of the enzyme activity 2 minutes after zero time; crude PMN extract, pH 7.5, 0.2 mM Boc-AAPAN; read-out: ED50 (the source's name) (converted)
Method: Protocol--Enzyme Assays for the Inhibition of Human Polymorphonuclear Leukocyte Elastase Via Hydrolysis of N-t-Boc-alanyl-alanyl-prolylalanine-p-nitroanilide Reagents: 0.05M TES (N-tris[hydroxymethyl]methyl-2-amino-ethanesulfonic acid) Buffer, pH 7.5. […] To 1.0 ml of 0.2 mM Boc-AAPAN in a cuvette, 0.01-0.1 ml of DMSO with or without inhibitor was added. […] 0.05 Milliliters of PMN extract was then added and the ΔOD/min at 410 mμ was measured and recorded. […]
Measured IC50, listed per entry for reference.

The cases that follow already have their IC50 on record.
compound: COC1C(=O)N2C(C(=O)OC(C)(C)C)=C(CSc3cn[nH]n3)CS(=O)(=O)C12 (stereo not shown) [R1=OCH3, M=drawing 44, B=OtBu, Q=H]
assayReadout: IC50
assayValue: 1440 nM
//
compound: CO[C@H]1C(=O)N2C(C(=O)OC(C)(C)C)=C(COC(C)=O)C(CSc3ccccc3)S(=O)(=O)[C@H]12 (stereo partly shown)
assayReadout: IC50
assayValue: 60.3 nM
//
compound: COC1C(=O)N2C(C(=O)OCC=C(C)C)=C(COC(C)=O)CS(=O)(=O)C12 (stereo not shown)
assayReadout: IC50
assayValue: 2580 nM

Exercise: Give IC50 (Human Polymorphonuclear Leukocyte Elastase (Homo sapiens, UniProt P08246)) of the following compound: COC1C(=O)N2C(C(=O)OC(C)(C)C)=C(COC(C)=O)C(CS(=O)(=O)c3ccccc3)S(=O)(=O)C12 (stereo not shown)
Solution: 37.8 nM

====

measuredOn: Human Polymorphonuclear Leukocyte Elastase (Homo sapiens)
test: biochemical
testParameters: Table II; 50% inhibition of the enzyme activity 2 minutes after zero time; crude PMN extract, pH 7.5, 0.2 mM Boc-AAPAN; read-out: ED50 (the source's name) (converted)
Measured IC50, listed per entry for reference.
# include the unit after the value

Exercise: Requested field: IC50. Item: CCC1C(=O)N2C(C(=O)OC(C)(C)C)=C(COC(=O)C(N)c3ccccc3)CS(=O)(=O)C12 (stereo not shown) [R1=C2H5, M=drawing 32, B=OtBu, Q=H]
Solution: 861 nM

Exercise: Requested field: IC50. Item: CO[C@H]1C(=O)N2C(C(=O)OC(C)(C)C)=C(COC(C)=O)C(C)S(=O)(=O)[C@H]12 (stereo partly shown)
Solution: 77 nM

Exercise: Requested field: IC50. Item: COC1C(=O)N2C(C(=O)OC(C)(C)C)=C(CSc3nc[nH]n3)CS(=O)(=O)C12 (stereo not shown) [R1=OCH3, M=drawing 39, B=OtBu, Q=H]
Solution: 2160 nM

Exercise: Requested field: IC50. Item: CCOC(=O)COC(=O)C1=C(C)CS(=O)(=O)C2C(OC)C(=O)N12 (stereo not shown)
Solution: 1440 nM

Exercise: Requested field: IC50. Item: CO[C@H]1C(=O)N2C(C(=O)OC(C)(C)C)=C(COC(=O)CCC(=O)O)CS(=O)(=O)C12 (stereo partly shown)
Solution: 231 nM

Exercise: Requested field: IC50. Item: COC1C(=O)N2C(C(=O)OC(C)(C)C)=C(CS(C)(=O)=O)CS(=O)(=O)C12 (stereo not shown)
Solution: 253 nM

Exercise: Requested field: IC50. Item: CO[C@H]1C(=O)N2C(C(=O)OC(C)(C)C)=C(COC(C)=O)CS(=O)(=O)[C@H]12
Solution: 1330 nM

Exercise: Requested field: IC50. Item: CNCC(=O)OCC1=C(C(=O)OC(C)(C)C)N2C(=O)C(OC)C2S(=O)(=O)C1 (stereo not shown)
Solution: 742 nM

Exercise: Requested field: IC50. Item: COC1C(=O)N2C(C(=O)OC(C)(C)C)=C(CSc3nnnn3C)CS(=O)(=O)C12 (stereo not shown) [R1=OCH3, M=drawing 45, B=OtBu, Q=H]
Solution: 1390 nM

Exercise: Requested field: IC50. Item: COC(=O)c1cccc(COC(=O)C2=C(C)CS(=O)(=O)C3C(OC)C(=O)N23)c1 (stereo not shown)
Solution: 733 nM

Exercise: Requested field: IC50. Item: CCOC(=O)OCC1=C(C(=O)OC(C)(C)C)N2C(=O)C(OC)C2S(=O)(=O)C1 (stereo not shown)
Solution: 740 nM

Exercise: Requested field: IC50. Item: COC1C(=O)N2C(C(=O)OC(C)(C)C)=C(CO)CS(=O)(=O)C12 (stereo not shown)
Solution: 2400 nM

Exercise: Requested field: IC50. Item: COC1C(=O)N2C(C(=O)OC(C)(C)C)=C(COC(=O)CN(C)C(=O)OC(C)(C)C)CS(=O)(=O)C12 (stereo not shown) [R1=OCH3, M=drawing 38, B=OtBu, Q=H]
Solution: 198 nM

====

measuredOn: Human Polymorphonuclear Leukocyte Elastase (Homo sapiens)
Sequence (P08246 30-247 limits assumed): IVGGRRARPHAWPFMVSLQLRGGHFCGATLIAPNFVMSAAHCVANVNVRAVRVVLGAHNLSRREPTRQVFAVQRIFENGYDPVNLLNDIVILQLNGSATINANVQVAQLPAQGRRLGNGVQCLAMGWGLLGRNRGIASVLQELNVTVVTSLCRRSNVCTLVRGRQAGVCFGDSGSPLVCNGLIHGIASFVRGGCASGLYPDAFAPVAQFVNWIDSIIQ
test: biochemical
testParameters: Table II; 50% inhibition of the enzyme activity 2 minutes after zero time; crude PMN extract, pH 7.5, 0.2 mM Boc-AAPAN; read-out: ED50 (the source's name) (converted)
assayReadout: IC50 (nM)
Expressed in nM, but write only the number.

compound: COC1C(=O)N2C(C(=O)N(C)C)=C(COC(C)=O)CS(=O)(=O)C12 (stereo not drawn)
assayReadout: IC50
quantityUnit: nM
assayValue: 1730

compound: COC1C(=O)N2C(C(=O)OC(C)(C)C)=C(CSc3nc4ccccc4s3)CS(=O)(=O)C12 (stereo not drawn) [R1=OCH3, M=drawing 43, B=OtBu, Q=H]
assayReadout: IC50
quantityUnit: nM
assayValue: 6220

compound: COC1C(=O)N2C(C(=O)N3CCC[C@H]3C(=O)O)=C(COC(C)=O)CS(=O)(=O)C12 (stereo partly drawn) [R1=OCH3, M=CH2OCOCH3, B=drawing 33, Q=H]
assayReadout: IC50
quantityUnit: nM
assayValue: 12000

compound: CCC1C(=O)N2C(C(=O)OCc3ccccc3)=C(COC(C)=O)CS(=O)(=O)C12 (stereo not drawn)
assayReadout: IC50
quantityUnit: nM
assayValue: 982

compound: COC1C(=O)N2C(C(=O)OC(C)(C)C)=C(COC(=O)c3ccccc3C(=O)O)CS(=O)(=O)C12 (stereo not drawn)
assayReadout: IC50
quantityUnit: nM
assayValue: 1250

compound: CO[C@H]1C(=O)N2C(C(=O)OC(C)(C)C)=C(COC(=O)NCC(=O)O)CS(=O)(=O)C12 (stereo partly drawn)
assayReadout: IC50
quantityUnit: nM
assayValue: 92.1

compound: COC1C(=O)N2C(C(=O)OCC(=O)C(C)(C)C)=C(COC(C)=O)CS(=O)(=O)C12 (stereo not drawn)
assayReadout: IC50
quantityUnit: nM
assayValue: 47.9

compound: C=C1C(COC(C)=O)=C(C(=O)OC(C)(C)C)N2C(=O)[C@H](OC)[C@H]2S1(=O)=O
assayReadout: IC50
quantityUnit: nM
assayValue: 77.4

Exercise: Requested field: IC50. Item: CC(=O)OCC1=C(C(=O)OC(C)(C)C)N2C(=O)C(OC=O)C2S(=O)(=O)C1 (stereo not drawn) [R1=drawing 36, M=CH2OCOCH3, B=OtBu, Q=H]
Solution: 385

Exercise: Requested field: IC50. Item: CO[C@H]1C(=O)N2C(C(=O)OC(C)(C)C)=C(C(=O)O)CS(=O)(=O)C12 (stereo partly drawn)
Solution: 28.8

Exercise: Requested field: IC50. Item: CC(=O)OCC1=C(C(=O)OCc2ccccc2)N2C(=O)C(OC(C)=O)C2S(=O)(=O)C1 (stereo not drawn)
Solution: 914

Exercise: Requested field: IC50. Item: CCOC(=S)SCC1=C(C(=O)OC(C)(C)C)N2C(=O)C(OC)C2S(=O)(=O)C1 (stereo not drawn) [R1=OCH3, M=drawing 40, B=OtBu, Q=H]
Solution: 1600

Exercise: Requested field: IC50. Item: COC(=O)C1=C(COC(C)=O)CS(=O)(=O)C2C(OC=O)C(=O)N12 (stereo not drawn) [R1=drawing 37, M=CH2OCOCH3, B=OCH3, Q=H]
Solution: 288

Exercise: Requested field: IC50. Item: CCC1C(=O)N2C(C(=O)OC(C)(C)C)=C(COC(=O)NC(C)C(=O)O)CS(=O)(=O)C12 (stereo not drawn) [R1=C2H5, M=drawing 31, B=OtBu, Q=H]
Solution: 2240

Exercise: Requested field: IC50. Item: CCC1C(=O)N2C(C(=O)OC(C)(C)C)=C(COC(=O)CCC(=O)O)CS(=O)(=O)C12 (stereo not drawn)
Solution: 1850

From: patent US5364848A
